Measured values drawn from PubChem BioAssay (EPA / NIEHS) for this set.

# Assay notes: BSK_hDFCGF_SRB: Viability Assessment in the BioMAP Diversity Plus: hDFCGF Assay (AID 2283061);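 also: cells exposed to compound for 24 h before the read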
# Test conditions: primary human foreskin fibroblasts
The source made the active and inactive calls. The calls were made as follows: active = hit-call score of the fitted dose curve at least 0.9, where 1 is the maximum; inactive = score below 0.9.
Your reply should match one of these outcome classes. yes for active, no for inactive

compound="CC(C)(C)C(O)(CCc1ccc(Cl)cc1)Cn1cncn1 (stereo unspecified)" cat=no
compound=Cc1cccc(N)c1N cat=no
compound=C[C@]12C=CC3=C4CCC(=O)C=C4CC[C@H]3[C@@H]1CC[C@@H]2O cat=no
compound=OCCCl cat=no
compound=Oc1ccccc1Cl cat=no
compound=Brc1ccc(Oc2ccccc2)cc1 cat=no
compound=Oc1ccc2ccc3cccc4ccc1c2c34 cat=yes
compound=CC(C)(O)c1cnn2c(-c3ccc(F)c(-c4c(F)cccc4C#N)c3)cnc2n1 cat=no
compound=Nc1ccc(Cc2ccc(N)cc2)cc1 cat=no
compound=Nc1ccc([N+](=O)[O-])cc1 cat=no

IN: Look up the recorded call for Cc1ccc(N)cc1 in this test.
OUT: no

IN: Recorded call for CCCCOC(=O)c1ccccc1C(=O)OCc1ccccc1 ?
OUT: no

IN: Per the assay record, what outcome was assigned to CCN(CC)CCO ?
OUT: no

IN: Hi team, can someone confirm the assay call for O=[N+]([O-])C(Br)(CO)CO ?
OUT: yes

IN: Given COP(=S)(OC)SCN1C(=O)c2ccccc2C1=O , state the outcome it received in this test.
OUT: no

IN: How was COC(=O)c1ccccc1N classified in this test?
OUT: no
